Test system: human peripheral blood lymphocytes
method.summary: lymphocyte growth inhibition assay ([3H]-thymidine incorporation) in chemically defined medium
Format: cell-based
stated.conditions: Homo sapiens, Lymphocyte; patients' lymphocytes, 4 days incubation then 24 h [3H]-thymidine pulse; read-out: Amount Required to Inhibit Growth by 50%
The following molecules are listed with their measured log10(IC50) values.
Would you kindly interpret these values as log10 of IC50 expressed in mg/L?

See these solved cases before continuing.
- CC1=C(/C=C/C(C)=C/C=C/C(C)=C/CO)C(C)(C)CCC1: -0.30
- CCO: 4.00
- Cn1c(=O)c2[nH]cnc2n(C)c1=O: 1.48
- Cn1c(=O)c2c(ncn2C)n(C)c1=O: 1.89

Requested field: log10(IC50). Item: NNC(=O)c1ccncc1
2.74

From: patent US6723527B2
